Measurement target: HLA-A*02:01
Assay method text: IEDB peptide-MHC binding, purified MHC/competitive/radioactivity; bounds were set here for any values at or beyond the usual limits of such assays
Measurement setup: source organism: Homo sapiens
Assay metric: pIC50
pIC50 here: minus log base 10 of the concentration, concentration in moles per litre.

# Biosequence, pIC50
data = [
    ("VLHSFTDAI", 6.38),
    ("TLVALVGLFV", 7.54),
    ("TLDSQVMSL", 6.79),
]

Which pIC50 value belongs to "ALVGLFVLL" ?
7.59

Request the reported pIC50 associated with "LIGNESFAL"
6.41

====

Measurement target: HLA-A*02:01
Assay method text: IEDB peptide-MHC binding, purified MHC/competitive/radioactivity; filed as Kd, often an IC50 or EC50 that approximates it; bounds were set here for any values at or beyond the usual limits of such assays
Measurement setup: source organism: Homo sapiens
Assay metric: pKd
# pKd = -log10(concentration in molar units)

Some solved cases for reference:
# Biosequence, Value reported
measured = [
    ("ALPYWNFAT", 5.87),
    ("VALVGLFVL", 5.15),
]

// switching to the query sequence
Query the reported pKd for HLA-A*02:01; item: "TLLVVMGTL"
5.58
